# study target: CCR-3 (Homo sapiens)
# Sequence (P51677 whole entry): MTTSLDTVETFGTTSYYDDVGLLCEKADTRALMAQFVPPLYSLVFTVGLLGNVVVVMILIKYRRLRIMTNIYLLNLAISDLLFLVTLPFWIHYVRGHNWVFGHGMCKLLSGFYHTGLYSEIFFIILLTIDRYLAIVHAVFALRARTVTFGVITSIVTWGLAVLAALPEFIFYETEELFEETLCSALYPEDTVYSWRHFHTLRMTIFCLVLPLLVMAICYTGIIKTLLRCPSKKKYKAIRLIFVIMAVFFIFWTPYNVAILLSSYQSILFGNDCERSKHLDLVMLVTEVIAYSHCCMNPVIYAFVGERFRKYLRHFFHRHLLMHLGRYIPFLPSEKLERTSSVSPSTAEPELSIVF
# assay name: Eotaxin-induced chemotaxis of CCR-3 transfectant cells (CCR3/U937)
# Type: cell-based
# Set-up: expressed in transfected cells; host or cells: U937
# recorded conditions: U-937; 10 µM test compound; eotaxin 1 x 10^-9 M; CCR3/U937 cells (Table 3a)
property: inhibition at 10 µM (%)

A: O=C(O)CCCN(CCCCNC(=O)Nc1ccc(Br)cc1)C1CCCc2ccccc21 (centres unmarked) [Compound 62]
B: CCOC(=O)c1ccc(CN(CCCNC(=O)Nc2ccccc2)CCc2ccc(Cl)cc2)o1 [Compound 22]
Sorting ascending by inhibition at 10 µM, which comes first: A or B ? Respond using the label that marks the chosen record. B
